biological target: GTPBP3 tRNA modification GTPase GTPBP3, mitochondrial (Homo sapiens, UniProt Q969Y2); construct: isoTOP-ABPP experiments performed in cell lysates (in vitro); endogenous in cells; host or cells: soluble proteome of human cancer cell lines (MDA-MB-231; Ramos and Jurkat also prepared); assay: competitive isoTOP-ABPP; type: binding; details: 50 uM, 231 sol, in vitro
Sequence (Q969Y2 21-492): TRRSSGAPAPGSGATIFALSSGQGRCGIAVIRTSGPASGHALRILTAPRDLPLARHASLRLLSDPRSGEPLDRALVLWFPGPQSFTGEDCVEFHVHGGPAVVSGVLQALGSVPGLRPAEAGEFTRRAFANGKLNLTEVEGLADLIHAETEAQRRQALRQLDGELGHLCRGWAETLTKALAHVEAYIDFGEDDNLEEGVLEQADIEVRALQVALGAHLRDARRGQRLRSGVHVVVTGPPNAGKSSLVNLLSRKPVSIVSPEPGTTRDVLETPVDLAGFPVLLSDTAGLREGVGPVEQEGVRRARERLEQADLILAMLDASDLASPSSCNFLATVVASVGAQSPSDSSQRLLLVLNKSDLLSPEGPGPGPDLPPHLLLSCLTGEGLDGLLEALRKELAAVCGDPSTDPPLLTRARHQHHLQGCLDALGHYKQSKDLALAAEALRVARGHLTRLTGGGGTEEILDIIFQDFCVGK
Binary call on isoTOP-ABPP reactivity ratio at lysine Q969Y2_K492 with cut-off 2: strictly below means 1 (yes), and equality or higher means 0 (no).

## Task Is 2 strictly greater than the compound's reported isoTOP-ABPP reactivity ratio at lysine Q969Y2_K492? compound: O=C(CN1C(=O)c2ccccc2C1=O)Oc1c(F)c(F)c(F)c(F)c1F [fragment 27]
## Result 1 (yes)

## Task Is 2 strictly greater than the compound's reported isoTOP-ABPP reactivity ratio at lysine Q969Y2_K492? compound: O=C(Oc1ccc([N+](=O)[O-])cc1[N+](=O)[O-])C(c1ccccc1)c1ccccc1 [fragment 30, 2,4-Dinitrophenyl 2,2-diphenylacetate]
## Result 1 (yes)

## Task Is 2 strictly greater than the compound's reported isoTOP-ABPP reactivity ratio at lysine Q969Y2_K492? compound: Cn1cc(CC(=O)Oc2ccc([N+](=O)[O-])cc2[N+](=O)[O-])c2ccccc21 [fragment 32]
## Result 1 (yes)

## Task Is 2 strictly greater than the compound's reported isoTOP-ABPP reactivity ratio at lysine Q969Y2_K492? compound: O=C(CCc1cn(-c2ccccc2)nc1-c1ccccc1)Oc1ccc([N+](=O)[O-])cc1[N+](=O)[O-] [fragment 29]
## Result 0 (no)

## Task Is 2 strictly greater than the compound's reported isoTOP-ABPP reactivity ratio at lysine Q969Y2_K492? compound: O=C(Oc1ccc([N+](=O)[O-])cc1[N+](=O)[O-])c1cc(C(F)(F)F)cc(C(F)(F)F)c1 [fragment 31]
## Result 1 (yes)

## Task Is 2 strictly greater than the compound's reported isoTOP-ABPP reactivity ratio at lysine Q969Y2_K492? compound: O=C(CCc1coc2cc(F)ccc2c1=O)Oc1c(F)c(F)c(F)c(F)c1F [fragment 26]
## Result 0 (no)

---

target: HDHD3 Haloacid dehalogenase-like hydrolase domain-containing protein 3 (Homo sapiens, UniProt Q9BSH5); construct: isoTOP-ABPP experiments performed in cell lysates (in vitro); endogenous in cells; host or cells: soluble proteome of human cancer cell lines (MDA-MB-231; Ramos and Jurkat also prepared); assay: competitive isoTOP-ABPP; format: binding; parameters: key: R = MS1 peak area ratio, DMSO (heavy) / compound-treated (light); settings: 50 uM, 231 sol, in vitro
Sequence (Q9BSH5 whole entry, the tested form may be a part): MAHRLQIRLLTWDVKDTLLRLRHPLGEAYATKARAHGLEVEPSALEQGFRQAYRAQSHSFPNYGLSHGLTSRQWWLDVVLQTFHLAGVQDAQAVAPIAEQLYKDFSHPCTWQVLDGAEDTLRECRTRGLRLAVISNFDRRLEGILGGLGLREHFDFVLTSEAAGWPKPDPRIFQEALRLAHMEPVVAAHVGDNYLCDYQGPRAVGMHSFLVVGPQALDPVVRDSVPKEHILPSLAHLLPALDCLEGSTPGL
Is isoTOP-ABPP reactivity ratio at lysine Q9BSH5_K15 at least 10? Then Yes. If not, No.

Use the examples below as a reference point.
* Cn1cc(CC(=O)Oc2ccc([N+](=O)[O-])cc2[N+](=O)[O-])c2ccccc21 | No
* O=C(CCc1cn(-c2ccccc2)nc1-c1ccccc1)Oc1ccc([N+](=O)[O-])cc1[N+](=O)[O-] | Yes
* O=C(Oc1c(F)c(F)c(F)c(F)c1F)c1ccc2ccccc2n1 | No
* O=C(Oc1ccc([N+](=O)[O-])cc1[N+](=O)[O-])c1cc(C(F)(F)F)cc(C(F)(F)F)c1 | No
* O=C(CCc1coc2cc(F)ccc2c1=O)Oc1c(F)c(F)c(F)c(F)c1F | No

## Task Does CCn1cc(C(=O)Oc2c(F)c(F)c(F)c(F)c2F)c(=O)c2ccc(C)nc21 have a reported isoTOP-ABPP reactivity ratio at lysine Q9BSH5_K15 of at least 10?
## Result Yes

## Task Does O=C(Oc1ccc([N+](=O)[O-])cc1[N+](=O)[O-])C(c1ccccc1)c1ccccc1 [fragment 30, 2,4-Dinitrophenyl 2,2-diphenylacetate] have a reported isoTOP-ABPP reactivity ratio at lysine Q9BSH5_K15 of at least 10?
## Result Yes

---

Property: isoTOP-ABPP ratio, lysine P55263_K88; scope: individual compounds
target: ADK Adenosine kinase (Homo sapiens); construct: isoTOP-ABPP experiments performed in cell lysates (in vitro); endogenous in cells; host or cells: soluble proteome of human cancer cell lines (MDA-MB-231, Ramos, Jurkat); test: competitive isoTOP-ABPP; type: binding; conditions: 50 uM_231_sol_in vitro
Sequence (P55263 whole entry): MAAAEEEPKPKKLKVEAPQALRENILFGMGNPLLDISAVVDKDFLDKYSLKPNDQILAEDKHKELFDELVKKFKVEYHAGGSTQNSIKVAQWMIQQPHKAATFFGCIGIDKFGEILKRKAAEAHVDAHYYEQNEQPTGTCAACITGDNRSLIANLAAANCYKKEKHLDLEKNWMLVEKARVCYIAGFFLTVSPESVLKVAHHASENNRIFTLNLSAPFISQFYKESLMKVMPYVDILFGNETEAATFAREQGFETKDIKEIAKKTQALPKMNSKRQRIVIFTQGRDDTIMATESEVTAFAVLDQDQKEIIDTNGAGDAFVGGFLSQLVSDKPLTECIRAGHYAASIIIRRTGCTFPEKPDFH
Could you keep your reply to the number by itself?

Use the examples below as a reference point.
• N#Cc1ccc(C(=O)Oc2ccc([N+](=O)[O-])cc2[N+](=O)[O-])cc1 [fragment 44, 2,4-Dinitrophenyl 4-cyanobenzoate] = 0.5
• O=C(Oc1c(F)c(F)c(C(F)(F)F)c(F)c1F)c1cc(C(F)(F)F)cc(C(F)(F)F)c1 = 0.8
• O=C(Oc1c(F)c(F)cc(F)c1F)c1cc(C(F)(F)F)cc(C(F)(F)F)c1 = 0.9
• O=C(ON1C(=O)CCC1=O)c1cc(C(F)(F)F)cc(C(F)(F)F)c1 = 0.8
• O=C(CCc1ccc2c(c1)OCO2)Oc1ccc([N+](=O)[O-])cc1[N+](=O)[O-] = 1.3

Proceed to the following item.
Memo: NC(=O)c1cc(C(F)(F)F)cc(C(F)(F)F)c1 [fragment 51, reference compound] , reported isoTOP-ABPP ratio, lysine P55263_K88: 0.8

---

Property: R value (DMSO/fragment) for probe 1 labeling; scope: individual compounds
molecular target: ERAP1 Endoplasmic reticulum aminopeptidase 1 (Homo sapiens); construct: endogenous in cells; host or cells: MDA-MB-231 lysate; assay: competitive isoTOP-ABPP; type: binding; conditions: Q9NZ08_K685; 50 uM, 231 sol, in vitro
Sequence (Q9NZ08 whole entry): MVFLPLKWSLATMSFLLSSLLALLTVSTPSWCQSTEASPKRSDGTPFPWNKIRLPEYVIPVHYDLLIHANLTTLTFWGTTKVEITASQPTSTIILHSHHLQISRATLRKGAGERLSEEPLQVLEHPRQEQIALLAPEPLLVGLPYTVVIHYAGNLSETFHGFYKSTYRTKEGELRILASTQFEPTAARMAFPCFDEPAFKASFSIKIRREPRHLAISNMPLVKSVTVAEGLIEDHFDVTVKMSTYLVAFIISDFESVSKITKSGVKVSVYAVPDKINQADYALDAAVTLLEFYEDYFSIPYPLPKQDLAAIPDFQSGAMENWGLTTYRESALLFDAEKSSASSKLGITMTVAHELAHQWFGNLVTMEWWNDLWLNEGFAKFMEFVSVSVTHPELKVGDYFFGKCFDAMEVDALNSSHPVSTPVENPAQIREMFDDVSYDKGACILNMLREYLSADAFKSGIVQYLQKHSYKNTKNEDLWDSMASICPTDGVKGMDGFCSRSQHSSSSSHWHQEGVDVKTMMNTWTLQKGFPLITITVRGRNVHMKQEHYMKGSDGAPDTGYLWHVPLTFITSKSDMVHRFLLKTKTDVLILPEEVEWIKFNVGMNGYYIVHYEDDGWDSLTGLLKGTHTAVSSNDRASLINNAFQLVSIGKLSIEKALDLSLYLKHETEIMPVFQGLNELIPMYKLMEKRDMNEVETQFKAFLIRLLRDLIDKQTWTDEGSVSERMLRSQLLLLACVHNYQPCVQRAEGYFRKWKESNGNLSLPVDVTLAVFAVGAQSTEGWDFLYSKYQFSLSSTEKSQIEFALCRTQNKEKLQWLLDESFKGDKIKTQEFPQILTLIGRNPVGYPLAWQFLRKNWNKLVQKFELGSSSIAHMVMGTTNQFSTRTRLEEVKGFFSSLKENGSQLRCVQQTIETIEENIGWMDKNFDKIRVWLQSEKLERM
Could you keep your reply to the number by itself?

Field R value (DMSO/fragment) for probe 1 labeling (ERAP1 Endoplasmic reticulum aminopeptidase 1 (Homo sapiens)), entry Cn1cc(CC(=O)Oc2c(F)c(F)c(F)c(F)c2F)c2ccccc21 : 2.2

---

Property: isoTOP-ABPP ratio, lysine P55786_K712; scope: individual compounds
target: NPEPPS Puromycin-sensitive aminopeptidase (Homo sapiens); construct: isoTOP-ABPP experiments performed in cell lysates (in vitro); endogenous in cells; host or cells: soluble proteome of human cancer cell lines (MDA-MB-231, Ramos, Jurkat); assay: competitive isoTOP-ABPP; assay type: binding; details: 50 uM_231_sol_in vitro
Sequence (P55786 whole entry): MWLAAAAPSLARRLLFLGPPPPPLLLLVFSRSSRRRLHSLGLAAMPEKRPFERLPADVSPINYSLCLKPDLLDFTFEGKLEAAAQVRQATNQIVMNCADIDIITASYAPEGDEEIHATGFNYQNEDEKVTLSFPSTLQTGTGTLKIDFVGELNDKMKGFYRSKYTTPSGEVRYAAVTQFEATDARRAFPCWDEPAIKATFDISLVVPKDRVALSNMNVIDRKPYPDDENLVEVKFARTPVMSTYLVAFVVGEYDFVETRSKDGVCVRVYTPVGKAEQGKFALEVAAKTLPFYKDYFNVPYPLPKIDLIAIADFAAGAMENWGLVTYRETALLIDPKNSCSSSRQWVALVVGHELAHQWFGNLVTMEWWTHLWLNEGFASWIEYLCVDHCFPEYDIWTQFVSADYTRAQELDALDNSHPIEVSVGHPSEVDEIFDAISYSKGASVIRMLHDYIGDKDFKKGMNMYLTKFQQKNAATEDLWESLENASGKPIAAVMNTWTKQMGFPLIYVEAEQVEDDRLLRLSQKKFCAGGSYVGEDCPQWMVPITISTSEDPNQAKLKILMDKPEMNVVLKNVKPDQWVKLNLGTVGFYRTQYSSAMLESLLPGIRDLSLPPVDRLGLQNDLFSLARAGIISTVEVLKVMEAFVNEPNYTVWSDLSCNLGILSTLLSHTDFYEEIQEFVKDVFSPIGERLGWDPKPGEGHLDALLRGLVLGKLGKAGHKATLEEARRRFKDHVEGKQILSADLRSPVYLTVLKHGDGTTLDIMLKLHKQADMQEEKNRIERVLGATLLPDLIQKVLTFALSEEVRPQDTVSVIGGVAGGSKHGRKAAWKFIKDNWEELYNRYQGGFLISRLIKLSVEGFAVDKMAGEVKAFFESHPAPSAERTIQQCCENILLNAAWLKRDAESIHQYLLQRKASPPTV
Could you keep your reply to the number by itself?

• NC(=O)c1cc(C(F)(F)F)cc(C(F)(F)F)c1 [fragment 51, reference compound] = 1.0
• O=C(Oc1c(F)c(F)cc(F)c1F)c1cc(C(F)(F)F)cc(C(F)(F)F)c1 [fragment 48] = 1.0
• O=C(Oc1c(F)c(F)c(C(F)(F)F)c(F)c1F)c1cc(C(F)(F)F)cc(C(F)(F)F)c1 [fragment 47] = 1.0
• O=C(ON1C(=O)CCC1=O)c1cc(C(F)(F)F)cc(C(F)(F)F)c1 [fragment 46] = 1.3
• O=C(CCc1ccc2c(c1)OCO2)Oc1ccc([N+](=O)[O-])cc1[N+](=O)[O-] [fragment 45] = 1.3

Proceed to the following item.
Memo: N#Cc1ccc(C(=O)Oc2ccc([N+](=O)[O-])cc2[N+](=O)[O-])cc1 [fragment 44, 2,4-Dinitrophenyl 4-cyanobenzoate] , reported isoTOP-ABPP ratio, lysine P55786_K712: 1.0

---

target: AP1G1 AP-1 complex subunit gamma-1 (Homo sapiens, UniProt O43747); construct: isoTOP-ABPP experiments performed in cell lysates (in vitro); endogenous in cells; host or cells: MDA-MB-231 soluble lysate; experiment: competitive isoTOP-ABPP; assay type: binding; conditions: 50 uM, in vitro, sol, 231
Sequence (O43747 whole entry, one chain of several): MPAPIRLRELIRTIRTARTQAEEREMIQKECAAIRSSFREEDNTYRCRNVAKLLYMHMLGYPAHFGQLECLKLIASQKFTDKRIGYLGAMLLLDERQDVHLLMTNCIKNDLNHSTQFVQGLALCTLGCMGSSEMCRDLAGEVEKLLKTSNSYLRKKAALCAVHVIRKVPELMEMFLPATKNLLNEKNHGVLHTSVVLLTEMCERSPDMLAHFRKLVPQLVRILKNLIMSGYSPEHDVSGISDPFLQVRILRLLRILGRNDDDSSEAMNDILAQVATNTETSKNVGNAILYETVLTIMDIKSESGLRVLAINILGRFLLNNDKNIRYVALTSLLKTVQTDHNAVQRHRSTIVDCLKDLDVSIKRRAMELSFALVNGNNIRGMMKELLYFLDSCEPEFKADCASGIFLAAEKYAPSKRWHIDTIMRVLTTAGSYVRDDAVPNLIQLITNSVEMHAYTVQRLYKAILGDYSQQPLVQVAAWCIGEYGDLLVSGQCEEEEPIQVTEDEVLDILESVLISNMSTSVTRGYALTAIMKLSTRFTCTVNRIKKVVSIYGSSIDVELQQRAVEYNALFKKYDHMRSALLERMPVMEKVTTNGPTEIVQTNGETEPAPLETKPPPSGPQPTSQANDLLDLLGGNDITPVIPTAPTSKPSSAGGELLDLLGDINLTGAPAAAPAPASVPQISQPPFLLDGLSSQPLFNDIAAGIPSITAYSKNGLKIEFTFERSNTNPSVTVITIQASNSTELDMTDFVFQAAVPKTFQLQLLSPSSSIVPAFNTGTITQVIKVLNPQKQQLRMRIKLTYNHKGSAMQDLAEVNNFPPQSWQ
measurement.kind: isoTOP-ABPP ratio (R) at liganded lysine O43747_K214
Could you keep your reply to the number by itself?

Use the examples below as a reference point.
• O=C(Oc1ccc([N+](=O)[O-])cc1[N+](=O)[O-])c1ccc(Oc2ccccc2)cc1 [fragment 39, 2,4-Dinitrophenyl 4-phenoxybenzoate] = 0.8
• CC(=O)Oc1ccc([N+](=O)[O-])cc1[N+](=O)[O-] [fragment 43, 2,4-Dinitrophenyl acetate] = 1.1
• O=C(Oc1ccc([N+](=O)[O-])cc1[N+](=O)[O-])C1CCN(C(=O)OCc2ccccc2)CC1 = 1.7
• O=C(Oc1ccc([N+](=O)[O-])cc1[N+](=O)[O-])C(c1ccccc1)(c1ccccc1)c1ccccc1 [fragment 42, 2,4-Dinitrophenyl 2,2,2-triphenylacetate] = 0.8

Memo: O=C(CC12CC3CC(CC(C3)C1)C2)Oc1ccc([N+](=O)[O-])cc1[N+](=O)[O-] , reported isoTOP-ABPP ratio (R) at liganded lysine O43747_K214: 0.9

Memo: O=C(CCc1coc2cc(F)ccc2c1=O)Oc1ccc([N+](=O)[O-])cc1[N+](=O)[O-] , reported isoTOP-ABPP ratio (R) at liganded lysine O43747_K214: 1.1

Memo: CC(C)(C)OC(=O)NCCCC(=O)Oc1ccc([N+](=O)[O-])cc1[N+](=O)[O-] , reported isoTOP-ABPP ratio (R) at liganded lysine O43747_K214: 1.0
